- Test system: Botulinum neurotoxin type F light chain protease (Clostridium botulinum)
- protocol: Botulinum neurotoxin type F light chain protease inhibition, multiplex microsphere flow cytometry, validation set (AID 588459)
- condition-notes: multiplex microsphere protease substrate cleavage assay, at 10 µM, hits give high values
The source made the active and inactive calls. How the calls were made is not given here.
readout-label: inhibition

{"columns": ["compound", "value-reported"],
 "data": [
  ["O=C(CCC(=O)c1cccs1)c1cccs1", "3.2% (inactive)"],
  ["Cc1ccc(SCC(=O)Nc2nccs2)cc1", "-4.8% (inactive)"],
  ["OC(C#CCN1CCCC1)(c1ccccc1)c1cccnc1 (stereo not given)", "-1% (inactive)"],
  ["CN(C)CCOc1ccc(Cl)cc1C(C)(C)C", "-7.7% (inactive)"],
  ["CC(=O)NC1C(OCc2ccccc2)OC(COC(C)=O)C(OC(C)=O)C1OC(C)=O (stereo not given)", "-1.4% (inactive)"],
  ["CC12CN3CC(C)(CN(C1)C3c1ccc(Cl)cc1Cl)C2=O (stereo not given)", "-0.6% (inactive)"],
  ["NNC(=O)c1ccc(Cl)cc1", "-1.9% (inactive)"],
  ["COc1ccc(OC)c(S(=O)(=O)N2CCCc3ccccc32)c1", "-4.6% (inactive)"],
  ["Cc1ccc(NCCC(=O)c2ccccc2)cc1Cl", "4.1% (inactive)"],
  ["O=C(NNC(=O)c1cccs1)c1ccco1", "1.9% (inactive)"],
  ["COc1cc(CO)ccc1OCc1nnnn1-c1ccc(C)cc1", "-0.2% (inactive)"],
  ["OC12CCCCC1C(c1ccc3c(c1)OCO3)N(Cc1cccc(F)c1)CC2 (stereo not given)", "-0.1% (inactive)"],
  ["COc1cc(OC)c(C(=O)CCCN2CCCC2)c(OC)c1", "2.9% (inactive)"],
  ["CCN(CC)C(=S)SSC(=S)N(CC)CC", "-3.2% (inactive)"],
  ["C[C@]12C=CC(=O)C=C1CCC1C3CC[C@](O)(C(=O)CO)[C@@]3(C)CC3OC312 (stereo not given in full)", "-1.8% (inactive)"],
  ["O=C(NCc1ccc(N2CCCC2=O)cc1)c1cccc(Cl)c1", "-4.5% (inactive)"],
  ["[N-]=[N+]=NC1C[C@H](n2ccc(=O)[nH]c2=O)O[C@@H]1CO (stereo not given in full)", "0.8% (inactive)"],
  ["COC(=O)c1ccc(CC(=O)c2ccc(O)cc2O)o1", "-3.4% (inactive)"],
  ["COC(=O)c1[nH]c2ccc(F)cc2c1NC(=O)C1=COCCO1", "0% (inactive)"],
  ["CNC(=O)Oc1ccc2c(c1)[C@]1(C)CCN(C)[C@@H]1N2C", "-0.4% (inactive)"],
  ["O=c1n(CCCN2CCN(c3cccc(Cl)c3)CC2)nc2ccccn12", "-5.2% (inactive)"],
  ["COc1ccc(CNC(=O)C2CCN(C(=O)[C@@H](CC(C)C)NC(=O)OC(C)(C)C)CC2)cc1", "1.1% (inactive)"],
  ["CCOC(=O)NN1C(=O)c2ccccc2NC1c1ccc(OC)c(OC)c1 (stereo not given)", "1.5% (inactive)"],
  ["OCCC1CN(Cc2nc(-c3ccccc3)cs2)CCN1Cc1ccc(F)cc1 (stereo not given)", "3.5% (inactive)"],
  ["C[N+](C)(C)CCOP(=O)(O)OP(=O)([O-])OC[C@H]1O[C@@H](n2ccc(N)nc2=O)[C@H](O)[C@@H]1O", "6% (inactive)"],
  ["O=C(Nc1ccc(C(=O)NC2CCCCC2)cc1)c1cccnc1", "0.1% (inactive)"],
  ["NS(=O)(=O)c1ccc(CNC(=O)c2cc(-c3ccccc3)nc3ccccc23)cc1", "0.5% (inactive)"],
  ["Clc1ccc2c(c1)CCc1cccnc1C2=C1CCNCC1", "-4.1% (inactive)"],
  ["CCN(CC)c1ccc([C@H]2[C@@H]3CCCC[C@]3(O)CCN2CC(=O)NCc2ccco2)cc1", "-1.2% (inactive)"],
  ["OC[C@H]1O[C@@H](n2cnc3c(Nc4ccccc4)ncnc32)[C@H](O)[C@@H]1O", "1.4% (inactive)"],
  ["COc1ccc(-c2coc3cc(O)cc(O)c3c2=O)cc1", "0.3% (inactive)"],
  ["CC(=O)OC[C@H]1O[C@@H](n2ncc(=O)[nH]c2=O)[C@H](OC(C)=O)[C@@H]1OC(C)=O", "-0.5% (inactive)"],
  ["Cc1ccc(S(=O)(=O)N2CCC(C(=O)N[C@@H](C)C(=O)NC3CCS(=O)(=O)C3)CC2)cc1 (stereo not given in full)", "2.1% (inactive)"],
  ["CN(Cc1ccccc1)CC(O)COc1ccc(CNCc2cccnc2)cc1 (stereo not given)", "-3.8% (inactive)"],
  ["CC(C)c1ccc(NC(=O)CNS(=O)(=O)c2ccc(F)cc2)cc1", "1.6% (inactive)"],
  ["COc1cc2c(cc1OC)C(c1cc(OC)c(OC)c(OC)c1)NCC2 (stereo not given)", "2.3% (inactive)"],
  ["C[C@]12CC[C@@H]3c4ccc(O)cc4CC[C@H]3[C@@H]1CC[C@@H]2O", "3.3% (inactive)"],
  ["COc1ccc2[nH]c(C)c(CN3CCC(C)CC3)c(=O)c2c1", "-0.8% (inactive)"],
  ["Cc1nc(-c2coc3c(CN(C)C)c(O)ccc3c2=O)cs1", "-2.2% (inactive)"],
  ["CN1CCC(=C2c3ccccc3C=Cc3ccccc32)CC1", "-1.3% (inactive)"],
  ["O=C(CCC1CCCN(C(=O)c2ccsc2)C1)NCc1ccc(F)c(F)c1 (stereo not given)", "2.2% (inactive)"],
  ["Cc1nc2ccccc2n1CC(O)Cn1c2ccccc2c2ccccc21 (stereo not given)", "2.9% (inactive)"],
  ["O=C(O)/C=C/c1cccc(OCc2ccccc2)c1", "-2.1% (inactive)"],
  ["CN(C)CCN(Cc1ccc(Cl)cc1)c1ccccn1", "-0.9% (inactive)"],
  ["CCCCOn1c(C)c(C(C)=O)c2c3no[n+]([O-])c3ccc21", "1.9% (inactive)"]
]}
